targetDesc: HIV protease (Human immunodeficiency virus type 1 group M subtype B, UniProt P04585)
Construct: HIV protease was expressed in E. coli
assayMethodText: Recombinant HIV Protease HPLC Assay
statedConditions: recombinant HIV protease expressed in E. coli; substrate VSFNFPQITL-NH₂; pH 5.5; 37° for 30 min; HPLC readout
measuredMetric: pIC50
Numbers only, as −log10 of the molar value.

List the reported pIC50 of each compound below.
1. CC(=O)NC(C(=O)NC(CNC(CC(C)C)C(=O)NC(CCC(=O)O)C(=O)NCCc1ccccc1)Cc1ccccc1)C(C)C (stereo not drawn) [Ac-Val-Pheψ[CH2NH]Leu-Glu-NHCH2CH2Ph, Ac-Val-PheΨ[CH₂NH]Leu-Glu-NHCH₂CH₂Ph]
2. CC(C)(C)C(NC(=O)C(O)CO)C(=O)NC(CC1CCCCC1)C(O)CC(=O)NC(CCC(=O)O)C(=O)NCCc1ccccc1 (centres unmarked)
3. CC(=O)NC(C(=O)NC(CC1CCCCC1)C(O)CC(=O)NC(CCC(=O)O)C(=O)NCCc1ccccc1)C(C)C (centres unmarked)
4. CC(=O)NC(C(=O)NC(CC1CCCCC1)C(O)CC(=O)NC(CCC(=O)O)C(=O)NCCc1ccccc1)C(C)(C)C (centres unmarked)

Result:
7.80
8.04
7.51
7.92

List the reported pIC50 of each compound below.
1. CC(=O)NC(C(=O)NC(CC1CCCCC1)C(O)CC(=O)NC(CC1CC1)C(=O)NCCc1ccccc1)C(C)(C)C (centres unmarked)
2. COC(=O)CCC(NC(=O)CC(O)C(CC1CCCCC1)NC(=O)C(NC(C)=O)C(C)C)C(=O)NCCc1ccccc1 (centres unmarked)
3. CCC(=O)NC(C(=O)NC(CC1CCCCC1)C(O)CC(=O)NC(CCC(=O)O)C(=O)NCCc1ccccc1)C(C)(C)C (centres unmarked)
4. CC(C)(C)CC(=O)NC(C(=O)NC(CC1CCCCC1)C(O)CC(=O)NC(CCC(=O)O)C(=O)NCCc1ccccc1)C(C)(C)C (centres unmarked)

Result:
7.03
6.32
7.82
6.96
